These entries and their values trace back to PubChem BioAssay AID1963847.

// viability, T/C lookup, one value per entry
# Tested on: 415267-285-R-J2-PDC complex spheroid viability
# Experiment: Anticancer human tumor 415267-285-R-J2-PDC patient-derived breast carcinoma cell line growth inhibition [POLQ]
# Condition: second compound 3.16 µM; first compound 3.16 µM; stronger effect = lower value
Quick reminder: number only, in %, skip the unit.

CC(C)n1c(=O)n(C)c2cnc3cc(F)c(-c4ccc(OCCCN5CCCCC5)nc4)cc3c21 + COC1C(OC(N)=O)C(O)C(Oc2ccc3c(O)c(NC(=O)c4ccc(O)c(CC=C(C)C)c4)c(=O)oc3c2C)OC1(C)C; 107
CCc1cc2c(N3CCc4c(cc(Cn5ccnc5)cc4-c4cn(C)nc4C(F)(F)F)C3=O)cc(C)nc2c(OC)n1 + Nc1ccc(C#CCN(C(=O)Cc2ncc(C(F)(F)F)cc2C(F)(F)F)c2ccc(F)cc2)nn1; 86.6
COc1cc2cc(C(=O)CCC(=O)O)sc2cc1OC + Nc1ccc(C#CCN(C(=O)Cc2ncc(C(F)(F)F)cc2C(F)(F)F)c2ccc(F)cc2)nn1; 94.3

Can you look up the measured viability, T/C of C=CC(=O)N1CCN(c2nc(=O)n(-c3c(C)ccnc3C(C)C)c3nc(-c4c(O)cccc4F)c(F)cc23)C(C)C1 (stereo not given) + Cc1cccc(N(C)C(=O)C2C(O)CCN2c2nc(C)cc(C(F)(F)F)c2C#N)c1 for me?
99.1

Fill in: viability, T/C of COc1cc2cc(C(=O)CCC(=O)O)sc2cc1OC + Cc1cccc(N(C)C(=O)C2C(O)CCN2c2nc(C)cc(C(F)(F)F)c2C#N)c1 is ___
97.3

###

# System: 415267-285-R-J2-PDC complex spheroid viability
# Experiment: Anticancer human tumor 415267-285-R-J2-PDC cell line growth inhibition [POLQ];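 further: spheroids exposed to compounds for one week before readout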
# Condition: curve of first compound; second compound 0.316 µM
Observation Type: IC50 (µM)
Please give a number only; it is taken to be in µM.

COc1cccc(OCCCN)c1-c1cc(Nc2cnc(C#N)cn2)n[nH]1 + Cc1cccc(N(C)C(=O)C2C(O)CCN2c2nc(C)cc(C(F)(F)F)c2C#N)c1; 0.00637

Param readout= IC50; system= 415267-285-R-J2-PDC complex spheroid viability; entry= CC1COCCN1c1cc(C2(S(C)(=N)=O)CC2)nc(-c2ccnc3[nH]ccc23)n1 (stereo not given) + Cc1cccc(N(C)C(=O)C2C(O)CCN2c2nc(C)cc(C(F)(F)F)c2C#N)c1 ; returns value.
0.441

Could you share what IC50 was measured for COc1cccc(OCCCN)c1-c1cc(Nc2cnc(C#N)cn2)n[nH]1 + Nc1ccc(C#CCN(C(=O)Cc2ncc(C(F)(F)F)cc2C(F)(F)F)c2ccc(F)cc2)nn1 , tested on 415267-285-R-J2-PDC complex spheroid viability?
0.00672

###

# Tested on: 415267-285-R-J2-PDC complex spheroid viability
# Experiment: Anticancer human tumor 415267-285-R-J2-PDC cell line growth inhibition [POLQ];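 further: spheroids exposed to compounds for one week before readout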;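 on viability, T/C: luminescence used as stand-in measure of viable cells; 100% = DMSO vehicle control viability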
# Condition: second compound 0.0316 µM; first compound 3.16 µM; stronger effect = lower value
Listing: viability, T/C of selected compounds
Output spec: scalar in %, unitless text.

CCc1cc2c(N3CCc4c(cc(Cn5ccnc5)cc4-c4cn(C)nc4C(F)(F)F)C3=O)ccnc2c(OC)n1 + COC1C(OC(N)=O)C(O)C(Oc2ccc3c(O)c(NC(=O)c4ccc(O)c(CC=C(C)C)c4)c(=O)oc3c2C)OC1(C)C; 83
COc1ccc([C@@H](O)c2cc(-c3ncnc4cc(N5CCOCC5)ccc34)c(F)cc2Cl)nn1 + COC1C(OC(N)=O)C(O)C(Oc2ccc3c(O)c(NC(=O)c4ccc(O)c(CC=C(C)C)c4)c(=O)oc3c2C)OC1(C)C; 78.4
C=CC(=O)N1CCN(c2nc(=O)n(-c3c(C)ccnc3C(C)C)c3nc(-c4c(O)cccc4F)c(F)cc23)C(C)C1 (stereo not given) + Nc1ccc(C#CCN(C(=O)Cc2ncc(C(F)(F)F)cc2C(F)(F)F)c2ccc(F)cc2)nn1; 104
C#Cc1c(F)ccc2cc(O)cc(-c3ncc4c(N5CC6CCC(C5)N6)nc(OCC56CCCN5CC(F)C6)nc4c3F)c12 (stereo not given) + Nc1ccc(C#CCN(C(=O)Cc2ncc(C(F)(F)F)cc2C(F)(F)F)c2ccc(F)cc2)nn1; 97
CCc1cc2c(N3CCc4c(cc(Cn5ccnc5)cc4-c4cn(C)nc4C(F)(F)F)C3=O)cc(C)nc2c(OC)n1 + Nc1ccc(C#CCN(C(=O)Cc2ncc(C(F)(F)F)cc2C(F)(F)F)c2ccc(F)cc2)nn1; 82.5

Value wanted: viability, T/C (415267-285-R-J2-PDC complex spheroid viability) of entry O=C(Nc1ccc(O)c(NS(=O)(=O)c2ccc(F)cc2)c1)c1ccc(-c2ccccc2)cc1 + Cc1cccc(N(C)C(=O)C2C(O)CCN2c2nc(C)cc(C(F)(F)F)c2C#N)c1
101

Please tell me: viability, T/C of CC1COCCN1c1cc(C2(S(C)(=N)=O)CC2)nc(-c2ccnc3[nH]ccc23)n1 (stereo not given) + Cc1cccc(N(C)C(=O)C2C(O)CCN2c2nc(C)cc(C(F)(F)F)c2C#N)c1 , system 415267-285-R-J2-PDC complex spheroid viability?
6.51

Kindly state the measured viability, T/C obtained for C=CC(=O)N1CCN(c2nc(=O)n(-c3c(C)ccnc3C(C)C)c3nc(-c4c(O)cccc4F)c(F)cc23)C(C)C1 (stereo not given) + Cc1cccc(N(C)C(=O)C2C(O)CCN2c2nc(C)cc(C(F)(F)F)c2C#N)c1 with 415267-285-R-J2-PDC complex spheroid viability.
111

What measured viability, T/C is associated with C#Cc1c(F)ccc2cc(O)cc(-c3ncc4c(N5CC6CCC(C5)N6)nc(OCC56CCCN5CC(F)C6)nc4c3F)c12 (stereo not given) + Cc1cccc(N(C)C(=O)C2C(O)CCN2c2nc(C)cc(C(F)(F)F)c2C#N)c1 on 415267-285-R-J2-PDC complex spheroid viability?
111

Record lookup: for 415267-285-R-J2-PDC complex spheroid viability, what viability, T/C belongs to CNCc1ccc(-c2[nH]c3cc(F)cc4c3c2CCNC4=O)cc1 + COC1C(OC(N)=O)C(O)C(Oc2ccc3c(O)c(NC(=O)c4ccc(O)c(CC=C(C)C)c4)c(=O)oc3c2C)OC1(C)C ?
117

Item: C=CC(=O)N1CCN(c2nc(=O)n(-c3c(C)ccnc3C(C)C)c3nc(-c4c(O)cccc4F)c(F)cc23)C(C)C1 (stereo not given) + COC1C(OC(N)=O)C(O)C(Oc2ccc3c(O)c(NC(=O)c4ccc(O)c(CC=C(C)C)c4)c(=O)oc3c2C)OC1(C)C Test system: 415267-285-R-J2-PDC complex spheroid viability Read-out: viability, T/C Value: ?
112

###

# Test system: 415267-285-R-J2-PDC complex spheroid viability
# Experiment: Anticancer human tumor 415267-285-R-J2-PDC cell line growth inhibition [POLQ]; active = viability on the fitted dose curve at most 10% of control; inactive = the rest;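 further: spheroids exposed to compounds for one week before readout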
# Condition: second compound 0.1 µM; first compound 0.0316 µM
Field 'call' accepts active, inactive

Please review the entries below; each comes with its answer.
CC[C@@]1(O)C(=O)OCc2c1cc1n(c2=O)Cc2cc3c(CN(C)C)c(O)ccc3nc2-1 + COC1C(OC(N)=O)C(O)C(Oc2ccc3c(O)c(NC(=O)c4ccc(O)c(CC=C(C)C)c4)c(=O)oc3c2C)OC1(C)C; inactive
COc1cccc(OCCCN)c1-c1cc(Nc2cnc(C#N)cn2)n[nH]1 + Nc1ccc(C#CCN(C(=O)Cc2ncc(C(F)(F)F)cc2C(F)(F)F)c2ccc(F)cc2)nn1; active
CCc1cc2c(N3CCc4c(cc(Cn5ccnc5)cc4-c4cn(C)nc4C(F)(F)F)C3=O)cc(C)nc2c(OC)n1 + COC1C(OC(N)=O)C(O)C(Oc2ccc3c(O)c(NC(=O)c4ccc(O)c(CC=C(C)C)c4)c(=O)oc3c2C)OC1(C)C; inactive
CC1COCCN1c1cc(-c2ccnn2C)c2ccnc(-c3ccn[nH]3)c2n1 (stereo unspecified) + Nc1ccc(C#CCN(C(=O)Cc2ncc(C(F)(F)F)cc2C(F)(F)F)c2ccc(F)cc2)nn1; inactive

Please state the recorded outcome for this molecule: C=CCn1c(=O)c2cnc(Nc3ccc(N4CCN(C)CC4)cc3)nc2n1-c1cccc(C(C)(C)O)n1 + Cc1cccc(N(C)C(=O)C2C(O)CCN2c2nc(C)cc(C(F)(F)F)c2C#N)c1
inactive

Give the logged outcome of this assay for the following molecule: CC[C@@]1(O)C(=O)OCc2c1cc1n(c2=O)Cc2cc3c(CN(C)C)c(O)ccc3nc2-1 + Nc1ccc(C#CCN(C(=O)Cc2ncc(C(F)(F)F)cc2C(F)(F)F)c2ccc(F)cc2)nn1
inactive

Could you check what this test reported for C#Cc1c(F)ccc2cc(O)cc(-c3ncc4c(N5CC6CCC(C5)N6)nc(OCC56CCCN5CC(F)C6)nc4c3F)c12 (stereo unspecified) + COC1C(OC(N)=O)C(O)C(Oc2ccc3c(O)c(NC(=O)c4ccc(O)c(CC=C(C)C)c4)c(=O)oc3c2C)OC1(C)C ?
inactive

For this molecule, state the assay outcome: COc1cccc2c1C(=O)c1c(O)c3c(c(O)c1C2=O)CC(O)(C(=O)CO)CC3OC1CC(N)C(O)C(C)O1 (stereo unspecified) + Nc1ccc(C#CCN(C(=O)Cc2ncc(C(F)(F)F)cc2C(F)(F)F)c2ccc(F)cc2)nn1
inactive

What call does the record list for O=C(c1cc(Cc2n[nH]c(=O)c3ccccc23)ccc1F)N1CCN(C(=O)C2CC2)CC1 + Nc1ccc(C#CCN(C(=O)Cc2ncc(C(F)(F)F)cc2C(F)(F)F)c2ccc(F)cc2)nn1 ?
inactive

Which outcome was assigned to C=CC(=O)N1CCN(c2nc(=O)n(-c3c(C)ccnc3C(C)C)c3nc(-c4c(O)cccc4F)c(F)cc23)C(C)C1 (stereo unspecified) + Cc1cccc(N(C)C(=O)C2C(O)CCN2c2nc(C)cc(C(F)(F)F)c2C#N)c1 in this test?
inactive

Entry CCc1cc2c(N3CCc4c(cc(Cn5ccnc5)cc4-c4cn(C)nc4C(F)(F)F)C3=O)ccnc2c(OC)n1 + Nc1ccc(C#CCN(C(=O)Cc2ncc(C(F)(F)F)cc2C(F)(F)F)c2ccc(F)cc2)nn1 : call = ?
inactive
